Origin of the recorded values: paper PMC9826845

molecular target: YoaA (6xHis);chi (DNA polymerase III clamp loader subunit) (Escherichia coli;Escherichia coli, UniProt P76257;P28905 1-636;1-147, |); test: fluorescein quenching titration; 0.5 mM ATPgS; rough estimate, no saturation; assay buffer B (composition not in the material) with 0.5 mM ATPgS, 50 nM DNA, YoaA-chi 0.1 nM-2 uM (Kd titration) or 1 uM; temperature and pH not given; conditions: protein: recombinant;recombinant; 6xHis (His-YoaA);; copies: 1;1; label: fluorescein; 20 bp; fork: 35 nt 5' overhang on strand 1, 10 nt 3' overhang on strand 2; other end blunt
Sequence (P76257 whole entry, chain 1 of 2): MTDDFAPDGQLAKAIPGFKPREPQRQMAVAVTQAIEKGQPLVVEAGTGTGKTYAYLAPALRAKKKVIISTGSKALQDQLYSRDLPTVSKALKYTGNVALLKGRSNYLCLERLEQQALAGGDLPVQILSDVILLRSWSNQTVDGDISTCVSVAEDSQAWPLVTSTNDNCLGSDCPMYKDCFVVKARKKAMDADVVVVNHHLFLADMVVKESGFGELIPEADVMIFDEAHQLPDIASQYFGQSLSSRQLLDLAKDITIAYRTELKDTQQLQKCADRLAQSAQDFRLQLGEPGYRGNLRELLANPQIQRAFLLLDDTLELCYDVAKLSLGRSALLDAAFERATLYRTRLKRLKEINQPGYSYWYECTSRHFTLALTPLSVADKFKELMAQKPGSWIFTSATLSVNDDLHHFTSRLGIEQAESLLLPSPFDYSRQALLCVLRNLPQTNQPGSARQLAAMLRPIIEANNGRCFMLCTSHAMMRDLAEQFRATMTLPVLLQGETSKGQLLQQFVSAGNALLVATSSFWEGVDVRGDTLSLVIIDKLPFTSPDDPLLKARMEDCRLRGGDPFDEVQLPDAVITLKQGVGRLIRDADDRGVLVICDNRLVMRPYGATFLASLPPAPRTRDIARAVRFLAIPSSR
Sequence (P28905 whole entry, chain 2 of 2): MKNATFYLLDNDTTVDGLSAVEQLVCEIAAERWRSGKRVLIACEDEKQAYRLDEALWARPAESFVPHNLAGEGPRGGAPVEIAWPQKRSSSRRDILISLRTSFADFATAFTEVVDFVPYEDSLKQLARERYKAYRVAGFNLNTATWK
property-label: Kd

// query For the binder B3 forked duplex (S4 + S5) (dsDNA, fluorescein at T15 of strand 2 (printed F, written as T)) DNA 1: TTTTTTTTTTTTTTTTTTTTTTTTTTTTTTTTTTTATAAAAGGGACATTCTGGCC DNA 2: GGCCAGAATGTCCCTTTTATTACTGGTCGT , give its measured Kd value.
// result ~328 nM
